These entries and their values trace back to ChEMBL document CHEMBL4828766.

Target: Melanocortin receptor 4 (Mus musculus)
Assay: Agonist activity at mouse MC4R expressed in HEK293 cells assessed as induction of cAMP level at 100 uM incubated for 2 hr by alphaScreen assay relative to control
Format: functional, cell-based
Square brackets hold non-standard residues; d marks the D form. Peptide text beside a SMILES is read from it. dPhe(4-I) = N[C@H](Cc1ccc(I)cc1)C(=O)O; 2Nal = N[C@@H](Cc1ccc2ccccc2c1)C(=O)O; d2Nal = N[C@H](Cc1ccc2ccccc2c1)C(=O)O
OBSERVED PROPERTY: Activity
Field note: include the unit after the figure.

MOLECULE	Activity
CC(=O)N[C@H](Cc1ccc(I)cc1)C(=O)N[C@@H](CCCNC(=N)N)C(=O)N[C@@H](Cc1c[nH]c2ccccc12)C(=O)N[C@H](Cc1ccc2ccccc2c1)C(N)=O (Ac-[dPhe(4-I)]RW[d2Nal]-NH2)	35%
CC(=O)N[C@H](Cc1ccc2ccccc2c1)C(=O)N[C@H](Cc1ccc2ccccc2c1)C(=O)N[C@@H](Cc1c[nH]c2ccccc12)C(=O)N[C@H](CCCCN)C(N)=O (Ac-[d2Nal][d2Nal]W[dK]-NH2)	30%
CC(=O)N[C@H](Cc1ccc2ccccc2c1)C(=O)N[C@H](Cc1ccc2ccccc2c1)C(=O)N[C@H](Cc1ccc2ccccc2c1)C(=O)N[C@@H](CCCNC(=N)N)C(N)=O	25%
CC(=O)N[C@H](Cc1ccc2ccccc2c1)C(=O)N[C@@H](CCCNC(=N)N)C(=O)N[C@@H](Cc1c[nH]c2ccccc12)C(=O)N[C@H](Cc1ccc2ccccc2c1)C(N)=O (Ac-[d2Nal]RW[d2Nal]-NH2)	30%

Next, consider the following molecule.
Record CC(=O)N[C@H](Cc1ccc2ccccc2c1)C(=O)N[C@@H](CCCNC(=N)N)C(=O)N[C@@H](Cc1ccc2ccccc2c1)C(=O)N[C@H](Cc1ccc2ccccc2c1)C(N)=O (Ac-[d2Nal]R[2Nal][d2Nal]-NH2) , field Activity: 30%

====

Target: Melanocortin receptor 3 (Mus musculus) (UniProt P33033)
Sequence (P33033 whole entry): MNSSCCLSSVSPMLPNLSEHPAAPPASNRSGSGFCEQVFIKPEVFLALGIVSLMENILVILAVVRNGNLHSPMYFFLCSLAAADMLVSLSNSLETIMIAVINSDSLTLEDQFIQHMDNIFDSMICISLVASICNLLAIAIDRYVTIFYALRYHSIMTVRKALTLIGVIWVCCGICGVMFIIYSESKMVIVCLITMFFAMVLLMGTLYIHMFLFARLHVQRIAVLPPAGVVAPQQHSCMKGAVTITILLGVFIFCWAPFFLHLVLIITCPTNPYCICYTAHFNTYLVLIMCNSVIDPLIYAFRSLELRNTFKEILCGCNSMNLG
Experiment: Agonist activity at mouse MC3R expressed in HEK293 cells assessed as induction of cAMP level at 100 uM incubated for 2 hr by alphaScreen assay relative to control
Type: functional, cell-based
Conditions: filed as agonist
Square brackets hold non-standard residues; d marks the D form. Peptide text beside a SMILES is read from it. dPhe(4-I) = N[C@H](Cc1ccc(I)cc1)C(=O)O; d2Nal = N[C@H](Cc1ccc2ccccc2c1)C(=O)O
The entries below are paired with their reported Activity.
Please append the unit to your numeric answer.

COMPOUND	Activity
CC(=O)N[C@H](Cc1ccc2ccccc2c1)C(=O)N[C@@H](CCCNC(=N)N)C(=O)N[C@H](Cc1ccc2ccccc2c1)C(=O)N[C@H](Cc1ccc2ccccc2c1)C(N)=O (Ac-[d2Nal]R[d2Nal][d2Nal]-NH2)	50%

The compound identified as CC(=O)N[C@H](Cc1ccc(I)cc1)C(=O)N[C@@H](CCCNC(=N)N)C(=O)N[C@H](Cc1ccc2ccccc2c1)C(=O)N[C@H](Cc1ccc2ccccc2c1)C(N)=O (Ac-[dPhe(4-I)]R[d2Nal][d2Nal]-NH2) registered its Activity at 45%

Given item CC(=O)N[C@H](Cc1ccc(I)cc1)C(=O)N[C@@H](CCCNC(=N)N)C(=O)N[C@H](Cc1ccc(I)cc1)C(=O)N[C@H](Cc1ccc2ccccc2c1)C(N)=O (Ac-[dPhe(4-I)]R[dPhe(4-I)][d2Nal]-NH2) , the value recorded as its Activity is 40%

The reported value for CC(=O)N[C@H](Cc1ccc2ccccc2c1)C(=O)N[C@@H](CCCNC(=N)N)C(=O)N[C@@H](Cc1c[nH]c2ccccc12)C(=O)N[C@H](Cc1ccc2ccccc2c1)C(N)=O (Ac-[d2Nal]RW[d2Nal]-NH2) in terms of Activity is 40%
